Target Under Test: CYP26B1 (Homo sapiens)
Experiment Notes: Inhibition of CYP26B1-catalyzed tazarotenic acid sulfoxide formation
Format: biochemical
Cond: read-out: CYP26B1 IC50, tazarotenic acid; recombinant CYP26B1; probe tazarotenic acid sulfoxide formation; ± standard error
As shown below, each of these compounds has a reported IC50 value.

[
  {
    "Compound": "CC1(C)CCC(C)(C)c2cc(C3(c4ccc5cc(C(=O)O)ccc5c4)SCCS3)ccc21",
    "IC50 [nM]": 1250
  },
  {
    "Compound": "O=C(O)c1ccc2cc(-c3ccc(O)c(C45CC6CC(CC(C6)C4)C5)c3)ccc2c1",
    "IC50 [nM]": 140
  },
  {
    "Compound": "CCC(CC)C(c1ccc(Nc2nc3ccccc3s2)cc1)n1cncn1 (stereo not shown)",
    "IC50 [nM]": 1
  },
  {
    "Compound": "C[C@@H]1C[C@H]2[C@@H]3CCC4=CC(=O)C=C[C@]4(C)[C@@]3(Cl)[C@@H](O)C[C@]2(C)[C@@]1(O)C(=O)CCl",
    "IC50 [nM]": 6810
  }
]

---

Target Under Test: CYP26B1 (Homo sapiens, UniProt Q9NR63)
Sequence (Q9NR63 whole entry): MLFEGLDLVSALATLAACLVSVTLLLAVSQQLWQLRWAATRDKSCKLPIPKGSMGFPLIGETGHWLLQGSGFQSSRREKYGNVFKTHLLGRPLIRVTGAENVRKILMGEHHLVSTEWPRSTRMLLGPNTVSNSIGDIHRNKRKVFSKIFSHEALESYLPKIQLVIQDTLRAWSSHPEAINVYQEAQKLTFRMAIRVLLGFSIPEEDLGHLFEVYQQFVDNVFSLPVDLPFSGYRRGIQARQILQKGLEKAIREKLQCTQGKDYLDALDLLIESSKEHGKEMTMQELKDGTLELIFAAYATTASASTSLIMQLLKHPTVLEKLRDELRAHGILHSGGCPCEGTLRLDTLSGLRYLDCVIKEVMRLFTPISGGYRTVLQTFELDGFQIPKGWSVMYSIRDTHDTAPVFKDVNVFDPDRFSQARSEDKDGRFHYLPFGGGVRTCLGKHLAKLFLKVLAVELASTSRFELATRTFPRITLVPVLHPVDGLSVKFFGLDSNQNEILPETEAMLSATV
Experiment Notes: Inhibition of CYP26B1-catalyzed tazarotenic acid sulfoxide formation
Type: biochemical
Cond: CYP26B1 IC50, tazarotenic acid, recombinant CYP26B1; probe tazarotenic acid sulfoxide formation; ± standard error
pIC50: −log10 of the molar value.
Measured Property: pIC50

[
  {
    "Molecule": "O=C(c1ccc(OCCN2CCCCC2)cc1)c1c(-c2ccc(O)cc2)sc2cc(O)ccc12",
    "Measured Result": 5.48
  },
  {
    "Molecule": "CCc1oc2ccccc2c1C(=O)c1cc(Br)c(O)c(Br)c1",
    "Measured Result": 5.12
  },
  {
    "Molecule": "CCC(C)n1ncn(-c2ccc(N3CCN(c4ccc(OCC5COC(Cn6cncn6)(c6ccc(Cl)cc6Cl)O5)cc4)CC3)cc2)c1=O (centres unmarked)",
    "Measured Result": 6.80
  },
  {
    "Molecule": "CCOc1nc2cccc(C(=O)O)c2n1Cc1ccc(-c2ccccc2-c2nnn[nH]2)cc1",
    "Measured Result": 4.23
  },
  {
    "Molecule": "CN(CCOc1ccc(CC2SC(=O)NC2=O)cc1)c1ccccn1 (centres unmarked)",
    "Measured Result": 5.07
  }
]

---

Target Under Test: UniProt O43174
Sequence (O43174 1-497): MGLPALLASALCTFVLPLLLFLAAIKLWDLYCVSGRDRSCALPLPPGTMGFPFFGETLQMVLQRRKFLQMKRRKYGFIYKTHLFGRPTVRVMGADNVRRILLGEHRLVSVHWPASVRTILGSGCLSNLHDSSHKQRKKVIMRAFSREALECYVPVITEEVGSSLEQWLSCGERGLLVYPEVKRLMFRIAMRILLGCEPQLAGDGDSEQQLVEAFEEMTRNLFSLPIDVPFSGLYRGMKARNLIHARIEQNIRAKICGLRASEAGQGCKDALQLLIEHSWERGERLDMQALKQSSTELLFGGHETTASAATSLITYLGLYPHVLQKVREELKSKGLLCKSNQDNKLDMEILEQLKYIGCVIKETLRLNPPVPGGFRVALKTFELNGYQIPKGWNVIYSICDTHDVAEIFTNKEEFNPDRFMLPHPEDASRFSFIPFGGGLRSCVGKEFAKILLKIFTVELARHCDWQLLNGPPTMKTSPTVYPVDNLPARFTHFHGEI
Experiment Notes: Inhibition of CYP26A1-catalyzed tazarotenic acid sulfoxide formation
Assay type: biochemical
Cond: read-out: CYP26A1 IC50, tazarotenic acid; recombinant CYP26A1; probe tazarotenic acid sulfoxide formation; ± standard error
pIC50: −log10 of the molar value.
Recorded pIC50, one value per entry.

[
  {
    "Compound": "CC1(C)CCC(C)(C)c2cc(C3(c4ccc(C(=O)O)cc4)OCCO3)ccc21",
    "pIC50": 6.09
  },
  {
    "Compound": "CCC(CC)C(c1ccc(Nc2nc3ccccc3s2)cc1)n1cncn1 (stereo not drawn)",
    "pIC50": 7.70
  },
  {
    "Compound": "CC1(C)CCC(C)(C)c2cc(C3(c4ccc5cc(C(=O)O)ccc5c4)SCCS3)ccc21",
    "pIC50": 7.70
  },
  {
    "Compound": "C[C@@H]1C[C@H]2[C@@H]3CCC4=CC(=O)C=C[C@]4(C)[C@@]3(Cl)[C@@H](O)C[C@]2(C)[C@@]1(O)C(=O)CCl",
    "pIC50": 6.05
  },
  {
    "Compound": "O=C(O)c1ccc2cc(-c3ccc(O)c(C45CC6CC(CC(C6)C4)C5)c3)ccc2c1",
    "pIC50": 8.00
  },
  {
    "Compound": "C#C[C@]1(O)CC[C@H]2[C@@H]3CCc4cc(O)ccc4[C@H]3CC[C@@]21C",
    "pIC50": 5.65
  }
]
